- Test system: 786-0
- Assay details: NCI tumour cell line growth inhibition, 48 h
Calls of active or inactive are those of the source. Cut-off read from the data, not from the text of the source: active = GI50 up to about 1.1 µM and inactive = higher.
Assay readout: GI50

[ask] // query GI50 value for entry C[C@H](CCC1=NCCN1)[C@H]1CC[C@H]2[C@@H]3CC[C@@H]4C[C@H](O)CC[C@]4(C)[C@H]3C[C@H](O)[C@]12C
[reply] 16.3 µM (inactive)

[ask] Please look up its GI50: O=C(O)/C=N\N=c1[nH]c2ccccc2[nH]1
[reply] > 100 µM (inactive)

[ask] Sample COCC1OCCN1C (centres undefined) — what was its GI50?
[reply] > 100 µM (inactive)

[ask] GI50 lookup needed for COC(=O)CC1NC(=O)C1C1(C)OCCO1 (centres undefined) , thanks.
[reply] > 100 µM (inactive)
